- assay.target: LDL receptor (cell surface) (UniProt P01130)
- Sequence (P01130 22-788): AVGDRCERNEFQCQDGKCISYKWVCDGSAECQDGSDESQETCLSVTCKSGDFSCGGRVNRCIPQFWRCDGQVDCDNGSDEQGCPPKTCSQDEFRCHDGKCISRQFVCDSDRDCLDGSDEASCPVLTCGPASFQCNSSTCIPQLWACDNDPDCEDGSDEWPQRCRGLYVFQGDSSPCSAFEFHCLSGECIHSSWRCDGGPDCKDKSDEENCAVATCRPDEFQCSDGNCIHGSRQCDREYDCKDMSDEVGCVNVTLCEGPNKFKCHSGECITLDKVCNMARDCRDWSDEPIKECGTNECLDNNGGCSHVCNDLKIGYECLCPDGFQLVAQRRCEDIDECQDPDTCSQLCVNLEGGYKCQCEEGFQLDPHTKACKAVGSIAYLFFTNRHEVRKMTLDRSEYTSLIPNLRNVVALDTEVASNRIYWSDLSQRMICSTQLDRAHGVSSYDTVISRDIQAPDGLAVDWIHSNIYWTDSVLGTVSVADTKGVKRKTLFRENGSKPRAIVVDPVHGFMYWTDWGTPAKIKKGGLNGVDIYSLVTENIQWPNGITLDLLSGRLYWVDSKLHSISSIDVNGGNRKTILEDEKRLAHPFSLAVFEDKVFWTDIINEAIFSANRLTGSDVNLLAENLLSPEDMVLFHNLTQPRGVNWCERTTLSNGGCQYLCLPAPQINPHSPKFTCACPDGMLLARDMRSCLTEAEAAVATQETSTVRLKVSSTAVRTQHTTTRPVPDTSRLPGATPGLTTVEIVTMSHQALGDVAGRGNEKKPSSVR
- assay.name: other, cell binding, total binding double reciprocal plot
value.kind: Kd (µM)

binder	value.kind	observed.measurement
YKLEGTTRLTRKRGLKLATALS [[Peptide D] nLDL]	Kd	3
YKLQGTTRLTRKRGLKLATALS [[Peptide C] nLDL]	Kd	7.7
TGKRYRLKTLRTLKKTSLLEAA [[Peptide E] nLDL]	Kd	15.2
GTTRLTRKRGLKL [[Peptide B] nLDL]	Kd	9.3
